Assay Info: qHTS Assay for Spectroscopic Profiling in 4-MU Spectral Region
Test Context: compound autofluorescence, 340/450 nm, 4-MU equivalents
Screen size: about 59,000 compounds; about 6,200 (11%) were called active. Roughly 9% stayed inconclusive and do not appear here. No stated cut-off is given here; in the data, active means max dye-equivalent concentration above about 10 nM; inconclusive means mostly about 1.1 nM to 9.6 nM; inactive means weaker than that. Many of the other results were omitted from the sample, so actives are more common in it than they were.
Classes used: true for active, false for inactive

Compound	Class Name
CCCCC(CCC(=O)Nc1ccc(C(=O)OCC)cc1)C(=O)O (stereo not drawn)	false
c1ccc2c(Nc3ccncc3)nc(-c3ccc4c(c3)OCO4)nc2c1	true
c1n[nH]c(NCc2ccc3c(c2)OCO3)n1	false
COCCn1c(=O)c(-c2cc(F)cc(F)c2)nc2cnc(N3CCNCC3)nc21	true
c1ccc2c(Nc3ccncc3)nc(-c3ccoc3)nc2c1	false
CCOc1ccccc1N(CC(=O)NC1CCCCC1)C(=O)CCCC(=O)Nc1ccccn1	false
O=C1CC(c2cccc(Br)c2)C2=C(CCCC2=O)N1 (stereo not drawn)	true
O=C1CC(c2cccc(F)c2)C2=C(CCCC2=O)N1 (stereo not drawn)	false
COCCn1c(CN2CCC(Cc3ccccc3)CC2)nc2c1c(=O)n(C)c(=O)n2C	false
Cc1cc(C)n2nc(C(=O)Oc3ccc4c(c3)OCO4)nc2n1	false
Cc1nc2cnc(Oc3cccc(Cl)c3)nc2n(C2CC2)c1=O	false
O=C(CSc1nnc(-c2cnccn2)n1Cc1ccco1)c1ccc(Cl)c(Cl)c1	false
CCCc1cc(=O)oc2c(C)c(O)c(CN3CCCCC3)cc12	true
Cn1cc(-c2nc3cnc(N4CCNCC4)nc3n(CCC#N)c2=O)c2ccccc21	false
COCCn1c(=O)c(CCc2ccccc2)nc2cnc(N3CCNCC3)nc21	true
O=C(Nc1cccc(F)c1)N1CC2(CCN(C(=O)c3cnccn3)CC2)C1	false
CC(=O)c1cc(-c2ccccc2)[nH]c1N1CCCC1	false
Cc1cc(=O)n2nc(N3CCCC(C(=O)N4CCN(C)CC4)C3)sc2n1 (stereo not drawn)	false

----------
Assay Info: qHTS Assay for Spectroscopic Profiling in 4-MU Spectral Region
Test Context: compound autofluorescence, 340/450 nm, 4-MU equivalents
Hit rate of the full screen: of about 59,000 compounds, about 6,200 (11%) were called active. About 9% were inconclusive and are not listed. No stated cut-off is given here; in the data, active means max dye-equivalent concentration above about 10 nM; inconclusive means mostly about 1.1 nM to 9.6 nM; inactive means weaker than that. The list comes from a sample in which actives are over-represented; it also holds close analogues and randomly drawn compounds.
Classes used: y = active, n = inactive

Molecule	Class Name
CCS(=O)(=O)n1nc(-c2ccc(OC)cc2)nc1SC	n
CC(=O)N1CCN(CCN=CC2=C(O)CC(C)(C)CC2=O)CC1	n
Cc1cc(C)c(C#N)c(SCS(=O)c2ccc(C(C)(C)C)cc2)n1 (centres undefined)	n
COCCOC(=O)C1=C(C)NC(=O)CC1c1cc2c(cc1Br)OCO2 (centres undefined)	n
O=C(Cn1nnc(-c2ccccc2)n1)NCc1ccc2c(c1)OCO2	n
CCCC(CCC(=O)OC)(C(=O)OCC)c1csc(N)n1 (centres undefined)	n
C=CCOc1ccc(/C=N/n2cncn2)cc1OC	n
CCCn1c(=NC(C)=O)c(C(=O)OCC)cc2c(=O)n3ccccc3nc21	y
CCOC(=O)CSc1nnc(CNc2ccc(F)cc2)o1	n
O=C(O)[C@@H]1[C@@H](C(=O)O)[C@]23C[C@@]2(C(=O)O)[C@]2(C(=O)O)CCC3=C3CCCC312	n
O=C(NCc1ccco1)c1nc(-c2ccccc2)n(-c2ccccc2)n1	n
OCCCNCc1ccccn1	n
Cc1cc(NC(=O)COC(=O)c2ccc(F)c(S(=O)(=O)N3CCOCC3)c2)no1	n
O=c1oc2cc(O)ccc2cc1-c1ccc(F)cc1	y
Cc1cc(C)nc(NC2=NCC(=O)N2c2ccc(Cl)cc2)n1	n
O=C(CCS(=O)(=O)Cc1ccccc1F)NCCCN1CCCCC1	n
CC(C)NC(=O)N1CCCC2(CCN(C(=O)c3cccn3C)CC2)C1	n
COc1ccc(Cc2nnnn2CC(=O)O)cc1	n
CCOC(=O)NCc1ccc2c(c1)OCO2	n
CN1c2ccccc2-c2nc3ccccc3n2C1c1ccco1 (centres undefined)	y
COc1ccc2c(CC(=O)Nc3nnc(C4CC4)s3)coc2c1	y
Nc1ncc(-c2cc3ccccc3oc2=O)s1	n
Cc1cc(C)c2c(c1)cc(C)c1nnc(SCC(=O)Nc3cc(C)on3)n12	n
CCn1c(NCCc2ccc(OC)c(OC)c2)nc2c1c(=O)n(C)c(=O)n2C	n
CC(C(=O)O)N1C(=O)c2cccc3cccc1c23 (centres undefined)	y
CCCOC(=O)C1=C(C)NC2=C(C(=O)C(C(=O)OC)C(C)C2)C1c1ccc(N(C)C)cc1 (centres undefined)	y
CC(=O)Nc1cccc(Oc2cc(C#N)c(C#N)cc2N2CCOCC2)c1	n
CCn1cc(C(=O)N2CCN(C3CCCCC3)CC2)c2cc(OC)c(OC)cc2c1=O	n
Cn1c(=O)c2c(nc(N3CCCCCC3)n2CC(O)COc2ccc(Cl)cc2)n(C)c1=O (centres undefined)	y
O=CN1CCN(C2CC(=O)N(c3ccc4c(c3)OCO4)C2=O)CC1 (centres undefined)	n
CCOC(=O)c1c(-n2cnnn2)sc(C)c1C	n
O=C(CCC(=O)N1CCN(S(=O)(=O)c2ccccc2)CC1)NC1CCCc2ccccc21 (centres undefined)	n
CCCS(=O)(=O)N1CCC(C(=O)NCCc2ccc(OC)c(OC)c2)CC1	n
COC(=O)c1ccccc1NC(=O)c1ccccc1NS(C)(=O)=O	n
CCCCC(=O)N1CC2(C)CN(C(=O)CCCC)CC(C)(C1)C2=O	n
CN(C)C(=O)/N=N\C(=O)N(C)C	n
O=C(Nc1nncs1)c1ccccc1NS(=O)(=O)c1cccs1	y
CCn1c(SCC(=O)c2ccc(Cl)s2)nnc1-c1cccs1	n
COC(=O)c1ccc(C2NC(=O)NC(C)=C2C(=O)N(C)C)cc1 (centres undefined)	n

----------
Assay Info: qHTS Assay for Spectroscopic Profiling in 4-MU Spectral Region
Test Context: compound autofluorescence, 340/450 nm, 4-MU equivalents
The whole screen tested about 59,000 compounds, of which about 6,200 (11%) were called active. About 9% were inconclusive and are not listed. No stated cut-off is given here; in the data, active means max dye-equivalent concentration above about 10 nM; inconclusive means mostly about 1.1 nM to 9.6 nM; inactive means weaker than that. What follows is part of a selection rich in actives, with near analogues and random picks from the rest.
Classes used: true for active, false for inactive

Compound	Class Name
COc1cccc(N2CC(C(=O)Nc3c(C)cccc3C)CC2=O)c1 (configuration not stated)	true
C[C@H]1O[C@@H](CC(=O)O)Cc2c1c(O)c1c(O)cc(-c3cc(=O)c4c(=O)c5c(c(=O)c=4c3=O)C[C@H](CC(=O)O)O[C@@H]5C)c(O)c1c2O	false
CCSc1nc(=S)n(CC)c(C)c1C(C)=O	false
O=c1cc(-c2ccccc2)[nH]c2nc(Cl)ccc12	true
CCOc1nc(OCC)nc(-n2cc(-c3ccccc3)nn2)n1	false
CCOC(=O)CSc1nnc(-c2ccco2)n1C	false
CCOc1ccc(N=C2SC(C(=O)O)CC(=O)N2C)cc1 (configuration not stated)	false
CCOc1ccc(NC(=O)N2CCN(CC)CC2)cc1	false
Cc1ccc(-c2nnn(CC(=O)N(CCO)C(C(=O)NC(C)(C)C)c3ccncc3)n2)cc1 (configuration not stated)	false
O=C(CNCCO)NC12CC3CC(CC(C3)C1)C2	false
CCOC(=O)CC1=CC(=O)Nc2ccccc2N1	false
CCCC(=O)Nc1cccc(-c2cn3ccsc3n2)c1	false
O=c1cc(CO)oc(CN2CCC(Cc3ccccc3)CC2)c1O	false
Cc1cccn2c(=O)c3cc(C#N)c(=O)n(CCCN4CCOCC4)c3nc12	true
COc1cccc(-c2nc(S(=O)(=O)c3ccccc3)c(N3CCOCC3)o2)c1	false
c1coc(-c2nc3nc4ccccc4n3nc2-c2ccco2)c1	false
Cn1cccc1C(=O)NC(=O)COC(=O)Cc1coc2ccc3ccccc3c12	true
CC(C)c1cc(CN(C)C)c(O)c(C(C)(C)C)c1	false
CS(=O)(=O)N1CCC2(CC1)CN(Cc1ccccc1)C2	false
CCOC(=O)c1[nH]c2ccccc2c1N=C(C)N(CC)CC	false
CCCCC[C@H](O)CCCC(=O)O	false
NC(=O)C1CCN(C2OC(=O)c3ccccc32)CC1 (configuration not stated)	false
COc1ccc(-c2cn3ccsc3n2)cc1	false
Cc1cc(C)c2nc(N3CCCC3)c(C#N)cc2c1	true
Cc1cccc2cc(C#N)c(N3CCCC3)nc12	true
COc1ccc(Cl)cc1NC(=O)c1oc(C)nc1C	true
Nc1ccc2c3c(cccc13)C(=O)NC2=O	false
CCCOC(=O)Cc1c(O)c2ccccc2[nH]c1=O	false
C=CCNc1nnc(C)c2ccccc12	false
COc1ccc(C(=O)Nc2ccc(S(=O)(=O)Nc3onc(C)c3C)cc2)cc1OC	false
Cn1c(-c2ccco2)nc2cc3ccccc3cc21	true
CCOc1ccc(C(C)C)cc1S(=O)(=O)n1nc(C)cc1C	false
O=C(c1csnn1)N1CCC2(CCN(Cc3nccs3)CC2)CC1	false
N#Cc1ccc(COC(=O)Cn2nnc(-c3ccccc3)n2)cc1	false
Cc1ccc(NC(=O)CS(=O)CC(=O)N(c2ccccc2)C(C)C(=O)NC2CCCC2)cc1 (configuration not stated)	false
C=CCOc1ccc(C2/C(=C(\O)c3c(C)[nH]c(C(=O)OC)c3C)C(=O)C(=O)N2CCN(C)C)cc1 (configuration not stated)	false
C/C=C1\C(=O)C[C@@H]2[C@@H]3CCC4=CC(=O)CC[C@@]4(C)[C@H]3CC[C@@]12C	true
